Test system: PPARg:RXRa 90nM:30nM, anti-RXR (NR concentration 90 nM, RXRa partner concentration 30 nM)
METHOD_SUMMARY: PBM binding z-score (relative to random genomic background probes); higher = stronger binding; sequences stand for … in GC…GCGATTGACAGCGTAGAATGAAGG
Lab note: compare PBM binding z-score against 3. Equal or greater, write rule met. Smaller, write rule not met.

                        sequence_chain      category
 0  ATACCAAGGTGATCGTGAGGTCGTTGGTACTAAC  rule not met
 1  TCTTGTAGATCAGCCGGTTAAGAAAGCTGGCCAA  rule not met
 2  CGACCAAGGTCATAGGAGGTCAGTGAAGACAGAT      rule met
 3  CCTGCTAGGTCATGGCCAGCTAATCTACAGTATG  rule not met
 4  TCTTGTAGATCAGCAGGTTATGAAAGCTGGCCAA  rule not met
 5  ACAGACAGGTGAGTAAAGGTAACTCAGCTGGACG  rule not met
 6  TCGAGTAGGTGACCAATGGGGCATTCAGCTTTCT  rule not met
 7  AGTCAGAGTTCACTAGGTAACGTAAGATTCAGCT      rule met
 8  ACTAGCAGACCAAGTTTGGGTCACTCAAACAAAG  rule not met
 9  AGAATGAGGTTAAGATCAGGCAAACAGAATACAT  rule not met
10  CCTAGTTGGTTAAGGTCACACACGCTATAGGTAC  rule not met
11  AACGAAAGGTCGAGGTGAGTATAGAGAAAGGGAA  rule not met
12  TAGCCTACGTCATGCGGGCCAGTATAGTGTCGGC  rule not met
13  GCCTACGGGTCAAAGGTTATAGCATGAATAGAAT      rule met
14  GCTAGCAGGCCGTTTGGGTCACTCAATGACGGGC  rule not met
15  GCTAGTAGGCCATTTGGGTCACTCAATGACGGGC  rule not met
16  CGAACTAGGTCATTGACAGGACAGTGAATAGTAA      rule met
17  CCTACTGGGCCAAGGTCAGTGATCAGTCAAAGCA  rule not met
18  CGAACGAGGGCATGAGTCGATAGCAAATGCCGAT  rule not met
19  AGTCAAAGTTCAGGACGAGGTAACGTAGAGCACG      rule met
20  CCTATTGGGCCACGAAAGGTCATTGATTCAGTGA      rule met
21  CCTCGGAGTACAACAGGAGGTCAGAGCTGCCAGA  rule not met
22  CCAGACAGGTGACAAGGTAACTCAGCCTCGATTA  rule not met
23  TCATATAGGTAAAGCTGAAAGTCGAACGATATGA  rule not met
24  AGATGTAGGTTACATCCGGGTCATTCAGGCTATG      rule met
25  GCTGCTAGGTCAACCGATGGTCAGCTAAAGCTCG  rule not met
26  CCTATTAGTGGACCATAAGGGCAACCGAAGCTCG  rule not met
27  TCTGCTAGGACAACGATGGTCAGCTAATCTGCTA  rule not met
28  AGTCAAAGTTCACTAGGTAGCGTAAGATTCAGCT      rule met
29  CGTCAAAGTTCAACTAAGGTAACCTAAAGCACGC      rule met
30  TAATATAGGTAAAGGTGAAAGTCGAACGATATGA      rule met
31  TCTGCTCGGTCAGTTGGTCAGCTAACGAGCTGCC  rule not met

Attribution: the supplement of paper PMC6555819
